ASSAYED TARGET: Cyclophilin A (Homo sapiens, UniProt P62937)
Construct: made in house
Sequence (P62937 whole entry, species assumed): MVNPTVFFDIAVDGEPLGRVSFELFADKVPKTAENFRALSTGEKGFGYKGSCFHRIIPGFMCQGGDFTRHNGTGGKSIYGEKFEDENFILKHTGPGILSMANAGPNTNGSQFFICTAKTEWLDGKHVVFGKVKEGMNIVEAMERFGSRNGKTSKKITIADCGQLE
ASSAY SUMMARY: AlphaLISA inhibition of binding of biotinylated Cyclosporin A to FLAG tagged Cyclophilin A
REPORTED CONDITIONS: AlphaLISA signal; test concentration not given
Where a SMILES comes first, the peptide text is derived from it. [ ]: non-standard residue; d: D form. MeBmt = C/C=C/C[C@@H](C)[C@@H](O)[C@H](NC)C(=O)O; NMeL = CN[C@@H](CC(C)C)C(=O)O; dNMeV = CN[C@@H](C(=O)O)C(C)C; NMeV = CN[C@H](C(=O)O)C(C)C; Abu = CC[C@H](N)C(=O)O; Sar = CNCC(=O)O
This section presents compounds with their documented % signal values.
ASSAY ENDPOINT: % signal (%)

* C/C=C/C[C@@H](C)[C@@H](O)[C@H]1C(=O)N[C@@H](CC)C(=O)N(C)CC(=O)N(C)CC(=O)N[C@@H](C(C)C)C(=O)N(C)[C@@H](CC(C)C)C(=O)N[C@@H](CC(C)C)C(=O)N[C@H](C)C(=O)N(C)[C@@H](CC(C)C)C(=O)N(C)[C@@H](CC(C)C)C(=O)N(C)[C@@H](C(C)C)C(=O)N1C [Compound C49] (cyclo([MeBmt][Abu][Sar][Sar]V[NMeL]L[dA][NMeL][NMeL][NMeV])) | 19.41
* C/C=C/C[C@@H](C)[C@@H](O)[C@H]1C(=O)N[C@@H](CC)C(=O)N(C)CC(=O)N(C)[C@H](C(C)C)C(=O)N[C@@H](C(C)C)C(=O)N(C)[C@@H](CC(C)C)C(=O)N[C@@H](CC(C)C)C(=O)N[C@H](C)C(=O)N(C)[C@@H](CC(C)C)C(=O)N(C)[C@@H](CC(C)C)C(=O)N(C)[C@@H](C(C)C)C(=O)N1C [Compound C55] (cyclo([MeBmt][Abu][Sar][dNMeV]V[NMeL]L[dA][NMeL][NMeL][NMeV])) | 32.88
